- Tested on: KM12 colon
- assay.protocol: NCI-60 one-dose screen, 48 h
- condition.description: 10 µM unless noted
About 83,000 compounds went through this panel and 20% of them were active in at least one assay; those are over-represented in the sample as a whole. Active and inactive are the calls of the source. How the source made its calls: active means growth percent below 10; inactive means the rest.
Just give me one of these, please: YES (active), NO (inactive)

Known results for compounds:
>  <compound>
O=C(O)CC1S/C(=N/N=C/c2nc3ccccc3s2)NC1=O (stereo not given)

>  <qualitative.label>
NO

$$$$
>  <compound>
N#C/C(=C/c1ccc([N+](=O)[O-])cc1)c1nnc(NC(=O)c2ccc(-n3c(=O)[nH]c4ccccc4c3=O)cc2)s1

>  <qualitative.label>
NO

$$$$
>  <compound>
CCOC(=O)/C(F)=C/C1CC1CCc1ccc(OCC)cc1 (stereo not given)

>  <qualitative.label>
NO

$$$$
>  <compound>
COc1cccc(-c2ccc(/C=N/NC(=O)c3[nH]c4ccc(Br)cc4c3-c3ccccc3)s2)c1

>  <qualitative.label>
YES

$$$$
>  <compound>
COc1ccc(-c2cc(-c3ccccc3)c(C#N)c(=O)[nH]2)cc1S(N)(=O)=O

>  <qualitative.label>
NO

$$$$
>  <compound>
COc1ccc(CCC2NCCc3c(Br)c4c(c(OC)c32)OCO4)cc1 (stereo not given)

>  <qualitative.label>
YES

$$$$

## Task Record request — test call for CC1CCc2c(sc3nc(SCC(=O)c4cccc(Br)c4)n(-c4ccccc4)c(=O)c23)C1 (stereo not given)
## Result NO

## Task Record request — test call for `COc1ccc(-c2cc(C(=O)N=Nc3c(O)[nH]c4ccc(Cl)cc34)c3ccccc3n2)cc1OC`
## Result NO

## Task Record request — test call for `O=C(NN1C(=O)/C(=C/C=C/c2ccc([N+](=O)[O-])o2)SC1=S)c1ccc([N+](=O)[O-])cc1`
## Result YES

## Task Record request — test call for `O=C(CSc1nc2ccccc2c(=O)[nH]1)NNC(=O)c1ccccc1Cl`
## Result NO

* * *

- Test system: NCI-H460 lung
- assay.protocol: NCI-60 one-dose screen, 48 h (100 = growth as untreated, 0 = no growth, -100 = all killed)
- condition.description: 10 µM unless noted
- Protocol: Growth inhibition of the NCI-H460 human Non-Small Cell Lung tumor cell line is measured as a screen for anti-cancer activity. Cells are grown in 96 well plates and exposed to the test compound for 48 hours. Compounds are tested at a single concentration, which is 10^-5 M for most compounds. The reported endpoint is percent growth (GI% or GIPRCNT), where numbers from 0 - 100% represent growth inhibition, and numbers from -100% - 0 represent cell death. […]
The panel holds about 83,000 compounds, 20% with a hit somewhere; the sample as a whole holds those more often.
growth under 40% gets Satisfied, anything at or over 40% gets Not satisfied.

Known results for compounds:
>  <compound>
COc1ccc2c(c1)C(Sc1ccc(Cl)cc1)c1c(nc(N)c(C#N)c1N)O2 (stereo not given)

>  <qualitative.label>
Not satisfied

$$$$
>  <compound>
S=C(NCCc1ccccc1)Nc1ccc(OCc2nc3ccc(Cl)cc3[nH]2)cc1

>  <qualitative.label>
Satisfied

$$$$
>  <compound>
COc1cc(/C=N/NC(=O)c2ccc(OCc3nc4ccc(C)cc4[nH]3)cc2)cc(OC)c1OC

>  <qualitative.label>
Satisfied

$$$$
>  <compound>
C=CC(=O)N1CCN(c2ccc3nc4c(nc3c2C(F)(F)F)C(=O)c2ncccc2C4=O)CC1

>  <qualitative.label>
Satisfied

$$$$

## Task Say whether its growth is strictly beneath 40%. Entry: `Cn1cc(-c2cc3nc(-c4cn(C)c5ncccc45)cc(N)n3n2)c2cc(F)ccc21`
## Result Satisfied

* * *

- Tested on: SNB-75 CNS
- assay.protocol: NCI-60 one-dose screen, 48 h (100 = growth as untreated, 0 = no growth, -100 = all killed)
- condition.description: 10 µM unless noted
Compounds without any hit were thinned out: in the full panel of roughly 83,000, 20% have a hit. Calls of active or inactive are those of the source. How the source made its calls: active means growth percent below 10; inactive means the rest.
reported.property: growth

>  <compound>
COc1ccc2[nH]c(O)c(N=Nc3nc(-c4ccccc4)cs3)c2c1

>  <growth>
-1.94% (active)

$$$$

I need growth for every entry listed below, if you could help.
1. Cn1ncc2c(N)nc(Oc3ccccc3-c3ccccc3)nc21
2. CCC1(OC(=O)c2ccccc2SSCCOC(=O)CCCCC2SCC3NC(=O)NC32)C(=O)OCc2c1cc1n(c2=O)Cc2cc3ccccc3nc2-1 (stereo unspecified)

## Result
8.98% (active)
81.3% (inactive)

* * *

Would you kindly list growth for each of these compounds?
- Test system: HCT-15 colon
- assay.protocol: NCI-60 one-dose screen, 48 h (100 = growth as untreated, 0 = no growth, -100 = all killed)
- condition.description: 10 µM unless noted
The panel holds about 83,000 compounds, 20% with a hit somewhere; the sample as a whole holds those more often.
Numbers only, in %.

>  <compound>
COc1ccc(CCC2NCCc3c(Br)c4c(c(OC)c32)OCO4)cc1 (stereo not drawn)

>  <growth (%)>
7.93

$$$$
>  <compound>
Cc1cc(C)c2[nH]c(=O)c(C(c3nnnn3Cc3ccc4c(c3)OCO4)N3CCN(C)CC3)cc2c1 (stereo not drawn)

>  <growth (%)>
110

$$$$
>  <compound>
COc1cccc2nc(Nc3cccc(NC(=O)c4ccc(CN5CCN(C)CC5)c(C(F)(F)F)c4)c3)ccc12

>  <growth (%)>
-79.1

$$$$
>  <compound>
O=C(N/N=C/c1c[nH]c2ccccc12)Nc1ccccc1Cl

>  <growth (%)>
7.73

$$$$
>  <compound>
CCCCN1C(=O)/C(=C\C(=O)c2cc3ccccc3oc2=O)c2ccccc21

>  <growth (%)>
2.32

$$$$

I need growth for every entry listed below, if you could help.
1. CCc1ccc(SC2c3cc(OC)ccc3Oc3nc(N)c(C#N)c(N)c32)cc1 (stereo not drawn)
2. COc1nc(N)ncc1-c1ccc2ncnc(N3CCc4cc(F)c(Cl)cc43)c2c1
3. N#C/C(=C/c1ccc(Cl)cc1)c1nnc(NC(=O)c2ccc(-n3c(=O)[nH]c4ccccc4c3=O)cc2)s1
4. COC(=O)c1c(C(=O)OC)c2ccc3c4ccccc4ccc3n2c1C(=O)OC
5. O=C1Nc2cc(-c3ccc(NS(=O)(=O)c4ccc(-c5ccccc5)cc4)cc3)ccc2/C1=C/c1ccc[nH]1
6. CCCN(CCC)S(=O)(=O)c1ccc(C(=O)O)cc1.CCCN(CCC)S(=O)(=O)c1ccc(C(=O)O)cc1.[Cl][Pt+2][Cl].[NH2-].[NH2-]
7. COc1ccc(N=Nc2c(N)nn3c(N)c(C#N)c(-c4ccc(C)cc4)nc23)cc1
8. COC(=O)c1c(C(=O)OC)c2ccc3c4ccccc4ccc3n2c1C(=O)C(C)Br (stereo not drawn)

## Result
-45
23.7
95.2
98.1
14.6
87.8
47.8
9.95

I need growth for every entry listed below, if you could help.
1. Cc1ccc(C(=O)Nc2cc(-n3ccnc3)cc(C(F)(F)F)c2)cc1-n1cc(-c2cnc3cccnn23)nn1
2. COc1ccc(SC2c3cc(OC)ccc3Oc3nc(N)c(C#N)c(N)c32)cc1 (stereo not drawn)
3. Cc1cc(C(NC(=O)C2CC3(CC(Nc4cccc5c4C(=O)N(C4CCC(=O)NC4=O)C5=O)C3)C2)c2ccc3c(c2)OC(F)(F)O3)c(O)c2ncccc12 (stereo not drawn)
4. COc1cncc(-c2ccc3ncnc(N4CCc5ccc(Cl)cc54)c3c2)c1
5. COC(=O)c1c(C(=O)OC)c2c3ccccc3c3ccccc3n2c1C(=O)C(F)(F)F

## Result
1: 97.4; 2: 80.5; 3: 21.1; 4: 11.9; 5: 101

* * *

- System: M14 melanoma
- assay.protocol: NCI-60 one-dose screen, 48 h
- condition.description: 10 µM unless noted
About 83,000 compounds went through this panel and 20% of them were active in at least one assay; those are over-represented in the sample as a whole. Active and inactive are the calls of the source. How the source made its calls: active means growth percent below 10; inactive means the rest.
Just give me one of these, please: active, inactive

>  <compound>
COc1cc(C2CC(c3ccc(S(=O)(=O)NCCNc4nc(N(C)C)nc(N5CCOCC5)n4)cc3)=Nc3c(N)nc(N)nc3N2)cc(OC)c1OC (centres undefined)

>  <qualitative.label>
inactive

$$$$
>  <compound>
O=C(Nc1ccc(F)cc1)Nc1nc2ccc([N+](=O)[O-])cc2s1

>  <qualitative.label>
active

$$$$
>  <compound>
O=C(N/N=C/c1ccc(Cl)o1)c1[nH]c2ccc(Br)cc2c1-c1ccccc1

>  <qualitative.label>
active

$$$$
>  <compound>
Cc1[nH]nc2ccc3nc(-c4cn[nH]c4C(F)(F)F)c4c(c3c12)CCCC4

>  <qualitative.label>
active

$$$$
>  <compound>
N#Cc1c(-c2ccc(F)cc2)nc(SCc2ccccc2)nc1N1CCNCC1

>  <qualitative.label>
active

$$$$
>  <compound>
N#CC1=C(c2cccs2)Nc2c(c(-c3ccccc3)nn2-c2ccccc2)C12C(=O)Nc1ccc(Br)cc12 (centres undefined)

>  <qualitative.label>
active

$$$$
>  <compound>
Cc1ccc2c(c1)/C(=C/C(=O)c1cc3ccccc3oc1=O)C(=O)N2

>  <qualitative.label>
inactive

$$$$
>  <compound>
O=C(N/N=C/c1occc1Br)c1[nH]c2ccc(Br)cc2c1-c1ccccc1

>  <qualitative.label>
active

$$$$

We now examine a further compound.
## Task Record request — test call for `CCCn1c(NC(=O)c2cccc(C(N)=O)c2)nc2cc(CN3CCCCC3)ccc21`
## Result inactive
